- System: Xanthine dehydrogenase/oxidase (Bos taurus)
- Sequence (P80457 whole entry): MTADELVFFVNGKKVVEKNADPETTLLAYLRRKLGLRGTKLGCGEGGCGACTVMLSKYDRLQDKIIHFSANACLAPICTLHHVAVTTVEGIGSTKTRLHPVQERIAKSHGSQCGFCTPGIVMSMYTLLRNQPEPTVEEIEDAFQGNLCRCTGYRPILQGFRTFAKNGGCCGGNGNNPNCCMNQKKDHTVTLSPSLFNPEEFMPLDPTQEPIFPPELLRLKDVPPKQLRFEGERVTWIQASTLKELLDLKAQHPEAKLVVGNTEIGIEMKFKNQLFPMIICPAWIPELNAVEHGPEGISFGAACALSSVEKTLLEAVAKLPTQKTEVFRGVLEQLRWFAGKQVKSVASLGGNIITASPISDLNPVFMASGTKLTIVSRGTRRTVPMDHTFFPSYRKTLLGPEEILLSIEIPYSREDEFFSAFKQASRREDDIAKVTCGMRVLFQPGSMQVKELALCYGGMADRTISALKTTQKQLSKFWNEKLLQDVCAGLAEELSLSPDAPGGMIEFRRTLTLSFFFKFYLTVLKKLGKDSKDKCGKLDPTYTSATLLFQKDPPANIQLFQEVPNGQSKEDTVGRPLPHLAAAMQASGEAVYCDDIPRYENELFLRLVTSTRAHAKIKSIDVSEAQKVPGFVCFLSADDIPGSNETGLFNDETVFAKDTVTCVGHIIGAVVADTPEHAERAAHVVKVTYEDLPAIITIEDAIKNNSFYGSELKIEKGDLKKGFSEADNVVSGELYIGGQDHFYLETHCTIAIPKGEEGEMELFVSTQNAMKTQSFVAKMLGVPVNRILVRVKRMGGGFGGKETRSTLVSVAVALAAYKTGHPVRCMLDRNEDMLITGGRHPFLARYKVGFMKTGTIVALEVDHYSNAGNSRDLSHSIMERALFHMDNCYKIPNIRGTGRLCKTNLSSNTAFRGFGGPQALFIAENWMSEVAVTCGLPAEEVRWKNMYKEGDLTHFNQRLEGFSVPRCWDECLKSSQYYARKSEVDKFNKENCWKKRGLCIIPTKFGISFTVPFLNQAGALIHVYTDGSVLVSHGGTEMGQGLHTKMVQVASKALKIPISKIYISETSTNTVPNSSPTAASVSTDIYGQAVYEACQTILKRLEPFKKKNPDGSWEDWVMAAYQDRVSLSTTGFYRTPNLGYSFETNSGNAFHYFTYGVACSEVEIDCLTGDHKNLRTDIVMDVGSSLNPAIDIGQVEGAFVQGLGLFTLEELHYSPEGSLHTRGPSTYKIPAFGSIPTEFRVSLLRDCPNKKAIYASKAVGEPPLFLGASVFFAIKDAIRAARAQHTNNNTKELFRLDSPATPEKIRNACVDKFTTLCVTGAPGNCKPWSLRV
pIC50: −log10 of the molar value.
Measured Parameter: pIC50

The cases that follow already have their pIC50 on record.
- Smiles Notation: "CC(C)COc1ccc(-c2nc(N)cc(O)n2)cc1C#N"
  Result: 6.89
- Smiles Notation: "Cc1ccc(COc2ccc(-c3nccc(O)n3)cc2C#N)cc1"
  Result: 7.10
- Smiles Notation: "N#Cc1cc(-c2nccc(O)n2)ccc1OCC1CC1"
  Result: 7.03

A. N#Cc1cc(-c2nccc(O)n2)ccc1OCc1ccc(Cl)cc1
B. N#Cc1cc(-c2nccc(O)n2)ccc1OCC1CCCCC1
[ask] Among A and B , which shows a numerically higher pIC50 result? Reply briefly: the label of your chosen item.
[reply] B
(B: 7.14, A: 6.83)
